Cited source for all entries: the supplement of paper PMC10065799

- assay target: Fyn (UniProt P06241)
- Sequence (P06241 whole entry, looked up): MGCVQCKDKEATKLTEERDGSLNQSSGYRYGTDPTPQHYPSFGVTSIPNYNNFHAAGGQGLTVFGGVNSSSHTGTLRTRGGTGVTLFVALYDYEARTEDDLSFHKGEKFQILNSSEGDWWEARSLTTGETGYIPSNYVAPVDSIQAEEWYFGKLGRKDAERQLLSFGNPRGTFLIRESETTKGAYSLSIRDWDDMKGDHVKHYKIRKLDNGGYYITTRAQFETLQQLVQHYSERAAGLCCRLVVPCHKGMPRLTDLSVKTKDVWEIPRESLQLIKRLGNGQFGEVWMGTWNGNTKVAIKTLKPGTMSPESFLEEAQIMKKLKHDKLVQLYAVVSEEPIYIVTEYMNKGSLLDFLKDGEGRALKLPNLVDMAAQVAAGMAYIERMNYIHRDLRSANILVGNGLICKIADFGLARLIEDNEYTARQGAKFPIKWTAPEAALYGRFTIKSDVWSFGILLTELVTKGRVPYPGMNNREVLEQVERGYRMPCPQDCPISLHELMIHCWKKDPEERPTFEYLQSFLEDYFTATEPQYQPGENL
- assay comment: phosphorylation enrichment, bacterial display (enrichment ratio); higher = better substrate or ligand; peptides without Tyr show the background;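 note: 11-residue human phosphosite peptides and single-mutation variants displayed on the E. coli surface, counted by deep sequencing, each peptide's frequency after selection divided by its frequency in the unselected input library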;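 note: frequency after pTyr selection over input frequency; kinase dosed for 20-30% of maximal phosphorylation in three min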

>  <query sequence>
PRIKTYMRPSP [TDP1_Y497_H493R]

>  <phosphorylation enrichment>
0.366

$$$$
>  <query sequence>
AGADGYDFLAP [FOXL2_Y186_G187D_YF]

>  <phosphorylation enrichment>
0.452

$$$$
>  <query sequence>
MTKEQYIKMNR [ARFGEF2_Y797]

>  <phosphorylation enrichment>
0.397

$$$$
>  <query sequence>
ISPPVYLTNEW [NRK_Y885]

>  <phosphorylation enrichment>
0.825

$$$$
>  <query sequence>
PPNSPYIGSSP [KCNT1_Y740]

>  <phosphorylation enrichment>
0.464

$$$$
>  <query sequence>
ETCLAYREKRI [TEKT1_Y118]

>  <phosphorylation enrichment>
0.536

$$$$
>  <query sequence>
CTTIHYHYMCN [TP53_Y234_N235H]

>  <phosphorylation enrichment>
0.561

$$$$
>  <query sequence>
ENKGVYVLMSG [IVD_Y277]

>  <phosphorylation enrichment>
0.561

$$$$
>  <query sequence>
FGGTVCHSPVS [PRC1_Y511_Y511C]

>  <phosphorylation enrichment>
0.447

$$$$
>  <query sequence>
RTTKTYFPHFD [HBA1_Y43_P38R]

>  <phosphorylation enrichment>
0.418

$$$$
>  <query sequence>
LNPDGYKKAFE [CPXM2_Y427_E428K_YF]

>  <phosphorylation enrichment>
0.495

$$$$
>  <query sequence>
PEVSGYCHCAD [TG_Y234]

>  <phosphorylation enrichment>
0.976

$$$$
>  <query sequence>
RAILLYEYVGK [NATD1_Y45_V42I]

>  <phosphorylation enrichment>
11.2

$$$$
>  <query sequence>
ARGMEYLASKK [FGFR1_Y613]

>  <phosphorylation enrichment>
0.364

$$$$
